B1: library; numbered along this chain (parent)
chain: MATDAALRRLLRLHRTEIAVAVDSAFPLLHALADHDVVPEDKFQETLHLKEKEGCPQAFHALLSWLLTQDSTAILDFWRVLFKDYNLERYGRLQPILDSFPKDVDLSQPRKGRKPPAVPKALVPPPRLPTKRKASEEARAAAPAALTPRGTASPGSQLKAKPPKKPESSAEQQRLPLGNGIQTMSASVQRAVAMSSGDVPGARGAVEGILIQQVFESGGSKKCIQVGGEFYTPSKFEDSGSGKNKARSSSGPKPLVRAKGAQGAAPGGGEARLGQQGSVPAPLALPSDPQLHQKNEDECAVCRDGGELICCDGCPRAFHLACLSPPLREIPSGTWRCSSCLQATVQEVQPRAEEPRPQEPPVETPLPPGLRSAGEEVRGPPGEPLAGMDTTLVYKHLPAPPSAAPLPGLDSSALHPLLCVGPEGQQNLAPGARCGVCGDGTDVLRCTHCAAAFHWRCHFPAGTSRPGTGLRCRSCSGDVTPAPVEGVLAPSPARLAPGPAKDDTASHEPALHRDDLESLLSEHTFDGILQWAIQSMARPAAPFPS

Variants of: B1
Assay: AIRE transcriptional activation functional score (insulin promoter-GFP; nonsense median 0, synonymous median 1) (normalised score); higher = higher AIRE activity (more reporter activation)
Details: with insulin promoter-GFP reporter in HEK293
Below, each entry is listed with its recorded AIRE transcriptional activation functional score.
OBSERVABLE: AIRE transcriptional activation functional score

* P405Y | 1.17
* Q534P | 0.0913
* F230C | 0.611
* R15V | 0.0544
* P355C | 1.05
* I18E | 0.682
* C434V | 0.211
* S464Y | 1.23
* P380G | 0.801
* G263T | 1.06
* F26Q | -2.95
* L470G | 0.741
* K164I | 0.719
* T441D | 0.0827
* S187L | 0.063
* G379V | 0.691
* P39H | 0.277
* P27K | 0.0588
* I330G | 1.16
* C322E | 1.77
* C475A | 0.119
* S107Q | 0.12

Origin of values: the supplement of paper PMC12667976
